Measured MIC Streptococcus pyogenes (GC 4563) accompanies every entry in the list below.
- Tested on: Streptococcus sp.
- assay.notes: in vitro antibacterial evaluation, MIC by broth dilution
- Format: cell-based
- test.settings: broth dilution, inoculum 5×10^5 CFU/mL, 18 hours at 35° C.; strain GC 4563
Enter your answer as a number in µg/mL; do not include the unit.

# count of solved cases: 2
CC(c1ccccc1)C1NC(=O)CNC(=O)C(CO)NC(=O)C(C(O)C2CNC(=N)N2C2OC(CO)C(O)C(O)C2O)NC(=O)C(C(O)C2CNC(=N)N2)NC(=O)C(Cc2ccc(OC3OC(CO)C(OC4OC5COC6(CCCCC6C)OC5C(O)C4O)C(O)C3O)cc2)NC1=O (stereo not shown) [Example 204]: 0.5
CC(c1ccccc1)C1NC(=O)CNC(=O)C(CO)NC(=O)C(C(O)C2CN(c3nc4ccccc4o3)C(=N)N2C2OC(CO)C(O)C(O)C2O)NC(=O)C(C(O)C2CNC(=Nc3nc4ccccc4o3)N2)NC(=O)C(Cc2ccc(OC3OC(CO)C(OC4OC5COC6(OC5C(O)C4O)C4CC5CC(C4)CC6C5)C(O)C3O)cc2)NC1=O (stereo not shown) [Example 227]: 32

Endpoint output: MIC Streptococcus pyogenes (GC 4563) of CC(c1ccccc1)C1NC(=O)CNC(=O)C(CO)NC(=O)C(C(O)C2CNC(=N)N2C2OC(CO)C(O)C(O)C2O)NC(=O)C(C(O)C2CNC(=N)N2)NC(=O)C(Cc2ccc(OC3OC(CO)C(OC4OC5COC(c6ccc(Oc7ccc(C(C)(C)C)cc7)cc6)OC5C(O)C4O)C(O)C3O)cc2)NC1=O (stereo not shown) [Example 181] . Value?
0.5

###

Measured MIC Coagulase Negative Staphylococcus (GC 4547) accompanies every entry in the list below.
- Tested on: Staphylococcus sp.
- assay.notes: in vitro antibacterial evaluation, MIC by broth dilution
- Assay type: cell-based
- test.settings: broth dilution, 18 hours at 35° C.; strain GC 4547
Numbered stars: 1 amine (or outer) side, 2 acyl side, 3 side chain; on linkers, the order of the positions; unused ones are H or OH. Square brackets hold non-standard residues; d marks the D form. Peptide text beside a SMILES is read from it. * marks the point of attachment. ξ: configuration not given here. X1 = N=C1NCC(C(O)C(N[*:1])C(=O)[*:2])N1C1OC(CO)C(O)C(O)C1O; ξEnduracididine(βξ-OH,4'ξ) = N=C1NCC(C(O)C(N)C(=O)O)N1; ξPhe(4-Cl,βξ-Me) = CC(c1ccc(Cl)cc1)C(N)C(=O)O; X2 = OCC1OC(OC2C(CO)OC(*)C(O)C2O)C(O)C(O)C1O

# count of solved cases: 10
CC(c1ccccc1)C1NC(=O)CNC(=O)C(CO)NC(=O)C(C(O)C2CNC(=N)N2C2OC(CO)C(O)C(O)C2O)NC(=O)C(C(O)C2CNC(=NC(=O)C(C)(C)C)N2)NC(=O)C(Cc2ccc(OC3OC(CO)C(OC4OC(CO)C(O)C(O)C4O)C(O)C3O)cc2)NC1=O (centres unmarked): <0.5 to 2 µg/mL
CCCOc1ccc(COCC2OC(OC3C(CO)OC(Oc4ccc(CC5NC(=O)C(C(C)c6ccccc6)NC(=O)CNC(=O)C(CO)NC(=O)C(C(O)C6CNC(=N)N6C6OC(CO)C(O)C(O)C6O)NC(=O)C(C(O)C6CNC(=N)N6)NC5=O)cc4)C(O)C3O)C(O)C(O)C2O)cc1 (centres unmarked): 0.5 to 1 µg/mL
CC(c1ccccc1)C1NC(=O)CNC(=O)C(CO)NC(=O)C(C(O)C2CNC(=N)N2C2OC(CO)C(O)C(O)C2O)NC(=O)C(C(O)C2CNC(=N)N2)NC(=O)C(Cc2ccc(OC3OC(CO)C(OC4OC5COC(CC6CCN(C(=O)OCc7ccccc7)CC6)OC5C(O)C4O)C(O)C3O)cc2)NC1=O (centres unmarked): 1 µg/mL
CC(C)CC(=O)OC1C(OC2C(CO)OC(Oc3ccc(CC4NC(=O)C(C(C)c5cccs5)NC(=O)CNC(=O)C(CO)NC(=O)C(C(O)C5CNC(=N)N5C5OC(CO)C(O)C(O)C5O)NC(=O)C(C(O)C5CNC(=N)N5)NC4=O)cc3)C(O)C2O)OC(CO)C(O)C1O (centres unmarked) [Example 265a]: 8 µg/mL
CC(c1ccc(Cl)cc1)C1NC(=O)CNC(=O)C(CO)NC(=O)C(C(O)C2CNC(=N)N2C2OC(CO)C(O)C(O)C2O)NC(=O)C(C(O)C2CNC(=N)N2)NC(=O)C(Cc2ccc(OC3OC(CO)C(OC4OC(CO)C(O)C(O)C4O)C(O)C3O)cc2)NC1=O (stereo not drawn) [Example 262a] (cyclo(G[ξPhe(4-Cl,βξ-Me)]Y(X2)[ξEnduracididine(βξ-OH,4'ξ)][X1]S); configuration not given here): 64 µg/mL
CC(C)=CCOc1cccc(C2OCC3OC(OC4C(CO)OC(Oc5ccc(CC6NC(=O)C(C(C)c7ccccc7)NC(=O)CNC(=O)C(CO)NC(=O)C(C(O)C7CNC(=N)N7C7OC(CO)C(O)C(O)C7O)NC(=O)C(C(O)C7CNC(=N)N7)NC6=O)cc5)C(O)C4O)C(O)C(O)C3O2)c1 (centres unmarked): 16 µg/mL
CC(c1ccccc1)C1NC(=O)CNC(=O)C(CO)NC(=O)C(C(O)C2CNC(=N)N2C2OC(CO)C(O)C(O)C2O)NC(=O)C(C(O)C2CNC(=N)N2)NC(=O)C(Cc2ccc(OC3OC(CO)C(OC4OC5COC(Cc6ccccc6)OC5C(O)C4O)C(O)C3O)cc2)NC1=O (centres unmarked): 1 µg/mL
COc1ccc(COCC2OC(OC3C(CO)OC(Oc4ccc(CC5NC(=O)C(C(C)c6ccccc6)NC(=O)CNC(=O)C(CO)NC(=O)C(C(O)C6CNC(=N)N6C6OC(CO)C(O)C(O)C6O)NC(=O)C(C(O)C6CNC(=N)N6)NC5=O)cc4)C(O)C3O)C(O)C(O)C2O)c2ccccc12 (centres unmarked): 4 µg/mL
CC(c1ccccc1)C1NC(=O)CNC(=O)C(CO)NC(=O)C(C(O)C2CN(Cc3ccc(C(F)(F)F)cc3)C(=N)N2C2OC(CO)C(O)C(O)C2O)NC(=O)C(C(O)C2CNC(=N)N2)NC(=O)C(Cc2ccc(OC3OC(CO)C(OC4OC5COC6(OC5C(O)C4O)C4CC5CC(C4)CC6C5)C(O)C3O)cc2)NC1=O (centres unmarked): 8 µg/mL
CC(c1ccccc1)C1NC(=O)CNC(=O)C(CO)NC(=O)C(C(O)C2CNC(=N)N2C2OC(CO)C(O)C(O)C2O)NC(=O)C(C(O)C2CNC(=N)N2)NC(=O)C(Cc2ccc(OC3OC(CO)C(OC4OC5COC(c6cccc(Cl)c6)OC5C(O)C4O)C(O)C3O)cc2)NC1=O (centres unmarked): 4 µg/mL

Endpoint output: MIC Coagulase Negative Staphylococcus (GC 4547) of COc1ccc(COCC2OC(OC3C(CO)OC(Oc4ccc(CC5NC(=O)C(C(C)c6ccccc6)NC(=O)CNC(=O)C(CO)NC(=O)C(C(O)C6CNC(=N)N6C6OC(CO)C(O)C(O)C6O)NC(=O)C(C(O)C6CNC(=N)N6)NC5=O)cc4)C(O)C3O)C(O)C(O)C2O)cc1F (centres unmarked) . Value?
2 µg/mL

Okay, and CCCCCCCC1OCC2OC(OC3C(CO)OC(Oc4ccc(CC5NC(=O)C(C(C)c6ccccc6)NC(=O)CNC(=O)C(CO)NC(=O)C(C(O)C6CNC(=N)N6C6OC(CO)C(O)C(O)C6O)NC(=O)C(C(O)C6CNC(=N)N6)NC5=O)cc4)C(O)C3O)C(O)C(O)C2O1 (centres unmarked) ?
1 µg/mL

Okay, and CCOc1cc(C2OCC3OC(OC4C(CO)OC(Oc5ccc(CC6NC(=O)C(C(C)c7ccccc7)NC(=O)CNC(=O)C(CO)NC(=O)C(C(O)C7CNC(=N)N7C7OC(CO)C(O)C(O)C7O)NC(=O)C(C(O)C7CNC(=N)N7)NC6=O)cc5)C(O)C4O)C(O)C(O)C3O2)ccc1OC (centres unmarked) ?
8 µg/mL

Okay, and CC(c1ccccc1)C1NC(=O)CNC(=O)C(CO)NC(=O)C(CC2CNC(=N)N2C2OC(CO)C(O)C(O)C2O)NC(=O)C(CC2CNC(=N)N2)NC(=O)C(Cc2ccc(OC3OC(CO)C(OC4OC(CO)C(O)C(O)C4O)C(O)C3O)cc2)NC1=O (centres unmarked) [Example 277a] ?
>128 µg/mL
